Attribute: melting point

Check out these entries, answers already filled in.
Please report the recorded melting point for `S=C(Cc1cccnc1)N1CCC(=C2c3ccc(Cl)cc3CCc3cccnc32)CC1` .
92 to 93 °C

Please report the recorded melting point for `COC(=O)N[C@@H](Cc1ccccc1)[C@H](O)CCl` .
163 to 164 °C

***
Please report the recorded melting point for `Cn1cccc1C(=O)c1[nH]c2ccc(Cl)cc2c1CC(=O)O` .
203 to 205 °C

Please report the recorded melting point for Cc1nc(N2CCC(CC3CC3)C2=O)sc1C(=O)NCc1ccc(F)cc1 (stereo unspecified) .
153 to 155 °C

Please report the recorded melting point for O=C(O)C[C@]1(O)C[C@H](CCCCCCc2ccc(C(F)(F)F)cc2C(F)(F)F)OC1=O (relative stereo) .
70 to 73 °C

Please report the recorded melting point for `C[C@H]1CCCN(C(=O)[C@@H]2Cc3ccccc3N2c2nccs2)C1` .
167 to 169 °C
